- Tested on: HOP-92
- PROTOCOL_TEXT: NCI tumour cell line growth inhibition, 48 h
Calls of active or inactive are those of the source. No stated cut-off is given here; in the data, active = GI50 up to about 1.1 µM and inactive = higher.
VALUE_TYPE: GI50

Qu. Given COC(=O)[C@]1(C)CCC[C@@]2(C)C1CC[C@]13C=C(C(C)C)[C@H](CC21)CC3(Cl)C#N (stereo not given in full) , state its recorded GI50.
Ans. > 100 µM (inactive)

Qu. Quick one: GI50 for NCCCCNCCCNC(=O)c1nc(-c2csc(CCN)n2)sc1Cl ?
Ans. > 100 µM (inactive)

Qu. Item O=C(Cn1c(-c2ccccc2)cc2ccccc21)N1CCOCC1 has what recorded GI50?
Ans. > 100 µM (inactive)

Qu. Fill in the blank: the reported GI50 of COc1ccc2c(c1)CN1C(=N2)CSC1c1cccc(Br)c1 (stereo not given) is ____.
Ans. 8.61 µM (inactive)

Qu. Returns the measured GI50 for the input molecule. Input: O=C(OCc1ccccc1)C1(N2CN(C3(C(=O)OCc4ccccc4)CCCC3)CN(C3(C(=O)OCc4ccccc4)CCCC3)C2)CCCC1
Ans. > 10 µM (inactive)

Qu. Give its GI50 value. Item: c1ccc(NNN2NC(c3ccccc3)C2c2ccccc2)cc1 (stereo not given)
Ans. > 100 µM (inactive)

Qu. Dear colleague, I am looking for the recorded GI50 of the following molecule: O=c1cc(-c2ccc(Cl)cc2)oc2cc(OCCCOc3ccc4c(=O)cc(-c5ccc(Cl)cc5)oc4c3)ccc12
Ans. > 100 µM (inactive)

Qu. Reported GI50, molecule NC1=Nc2ccccc2Sc2nncn21 : ____
Ans. > 100 µM (inactive)

Qu. Name the recorded GI50 for N#CC(C#N)SCc1ccccc1 .
Ans. 15.5 µM (inactive)

Qu. Fill in the blank: the reported GI50 of CNc1ccc(/C=C2\C=Cc3ccccc32)cc1 is ____.
Ans. 19.1 µM (inactive)
